Examples of compounds with documented inhibition at 1 µM follow.
measurement_target: mTLR9 (Mus musculus, UniProt Q9EQU3)
Construct: Splenocytes isolated from male C57/BL6 mice; from tissue; host or cells: splenocytes from the spleen of male C57BL/6 mice
assay_procedure: mTLR9 antagonism (IL-6 and TNF-α release assay) in mouse splenocytes, CpG ODN-2006 stimulated
Format: cell-based
study_conditions: 1 μM; TNF-α release, mouse splenocytes; read-out: mTLR9 inhibitory activity (% at 1 μM), TNF-α
Answer in %, number only, no unit symbol.

A selection of reference data follows.
- compound: "CC(C)N1CCN(c2ccc(-c3nccc4[nH]c(CN5CCC6(CC5)CC(O)C6)cc34)cc2)CC1 [Example A13]"
  units_text: "%"
  inhibition at 1 µM: 91
- compound: "CC(C)N1CCN(c2ccc(-c3nccc4[nH]c(CN5CC(F)C5)cc34)cc2)CC1 [Example A16]"
  units_text: "%"
  inhibition at 1 µM: 100
- compound: "Cc1cc2[nH]c(Cn3cccn3)cc2c(-c2ccc(N3CCN(C(C)C)CC3)cc2)n1 [Example A28]"
  units_text: "%"
  inhibition at 1 µM: 100
- compound: "Cc1cc2[nH]c(CCCN3CCCCC3)cc2c(-c2ccc(N3CCN(C(C)C)CC3)cc2)n1 [Example C5]"
  units_text: "%"
  inhibition at 1 µM: 100
- compound: "CN1CCC(n2cc(-c3nccc4[nH]c(CN5CCOCC5)cc34)cn2)CC1 [Example A63]"
  units_text: "%"
  inhibition at 1 µM: 0

## Task Returns the measured inhibition at 1 µM for the input compound. Input: CC(C)N1CCN(c2ccc(-c3nccc4[nH]c(CN5CCOCC5)cc34)cn2)CC1 [Example A53]
## Result 80

## Task # lookup: inhibition at 1 µM of CN1CCC(Oc2ccc(-c3nccc4[nH]c(CN5CCOCC5)cc34)cc2)CC1 [Example A62]
## Result 79

## Task For CN1CCN(c2ccc(-c3nccc4[nH]c(CN5CCC(F)CC5)cc34)cc2)CC1 [Example A25] , what is its reported inhibition at 1 µM?
## Result 100

----------
measurement_target: mTLR7 (Mus musculus, UniProt P58681)
Construct: Splenocytes isolated from male C57/BL6 mice; from tissue; host or cells: splenocytes from the spleen of male C57BL/6 mice
Sequence (P58681 27-1050): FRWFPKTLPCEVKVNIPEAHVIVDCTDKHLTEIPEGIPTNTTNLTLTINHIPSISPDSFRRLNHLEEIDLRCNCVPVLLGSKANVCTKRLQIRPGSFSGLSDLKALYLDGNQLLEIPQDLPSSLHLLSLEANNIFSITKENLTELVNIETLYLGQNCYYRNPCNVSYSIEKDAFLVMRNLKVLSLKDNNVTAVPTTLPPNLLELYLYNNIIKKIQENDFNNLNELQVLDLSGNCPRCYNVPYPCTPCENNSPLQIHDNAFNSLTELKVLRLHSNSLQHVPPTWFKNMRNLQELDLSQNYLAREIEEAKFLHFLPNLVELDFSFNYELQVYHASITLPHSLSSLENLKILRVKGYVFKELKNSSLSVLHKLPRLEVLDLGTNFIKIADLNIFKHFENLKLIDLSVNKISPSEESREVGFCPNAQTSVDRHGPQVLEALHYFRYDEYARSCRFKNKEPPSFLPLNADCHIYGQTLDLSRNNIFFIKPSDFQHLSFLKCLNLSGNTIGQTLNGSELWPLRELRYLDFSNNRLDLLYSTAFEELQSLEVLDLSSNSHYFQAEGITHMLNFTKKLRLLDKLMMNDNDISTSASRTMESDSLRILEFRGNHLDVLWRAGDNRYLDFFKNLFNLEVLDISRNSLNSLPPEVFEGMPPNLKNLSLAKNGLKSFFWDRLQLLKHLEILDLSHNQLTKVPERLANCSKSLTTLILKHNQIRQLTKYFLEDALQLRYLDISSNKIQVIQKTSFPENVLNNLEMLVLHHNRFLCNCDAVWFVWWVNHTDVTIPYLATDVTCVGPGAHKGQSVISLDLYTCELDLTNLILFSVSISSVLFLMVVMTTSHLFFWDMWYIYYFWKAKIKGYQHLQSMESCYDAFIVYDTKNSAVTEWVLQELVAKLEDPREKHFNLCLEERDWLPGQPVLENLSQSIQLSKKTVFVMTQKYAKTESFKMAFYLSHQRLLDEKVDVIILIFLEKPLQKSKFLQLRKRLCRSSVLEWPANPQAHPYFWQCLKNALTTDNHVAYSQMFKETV
assay_procedure: mTLR7 antagonism (IL-6 and TNF-α release assay) in mouse splenocytes, R0006/DOTAP stimulated
Type: cell-based
study_conditions: 1 μM; IL-6 release, mouse splenocytes; read-out: mTLR7 inhibitory activity (% at 1 μM), IL-6
Description: mTLR9 and mTLR7 Antagonism (Cytokine Release Assay) in Mouse Splenocytes […] 1 mg/ml stock of R0006 was prepared in sterile, endotoxin-free water. […] S/B Ratio, % Activity and % Inhibition was calculated using MS Excel. […]
readout_type: inhibition at 1 µM (%)
Field format: number, assumed %, no unit text.

Use these answered entries as a reference point.
- structure_string: "CCN1CCN(c2ccc(-c3nc(C)cc4[nH]c(CN5CCOCC5)cc34)cc2)CC1"
  measured_number: 100
- structure_string: "CC(C)N1CCC(c2ccc(-c3nccc4[nH]c(CN5CCOCC5)cc34)cn2)CC1"
  measured_number: 13
- structure_string: "Cc1cc2c(cc(CCN3CCOCC3)n2C)c(-c2ccc(N3CCN(C(C)C)[C@@H](C)C3)cc2)n1"
  measured_number: 100
- structure_string: "CC(C)N1CCN(c2ccc(-c3nccc4[nH]c(CN5CC(O)C5)cc34)cc2)CC1"
  measured_number: 0
- structure_string: "CC(C)N1CCN(c2ccc(-c3nccc4[nH]c(CN5CCCCC5)cc34)cc2)CC1"
  measured_number: 100
- structure_string: "CC(C)N1CCN(c2ccc(-c3nccc4[nH]c(CN5CCOCC5)cc34)cc2)CC1"
  measured_number: 97
- structure_string: "CC(C)N1CCN(c2ccc(-c3nccc4[nH]c(CN5CCC(O)CC5)cc34)cc2)CC1"
  measured_number: 80

Field: next compound
## Task inhibition at 1 µM lookup needed for "CCN1CCN(c2ccc(-c3nccc4[nH]c(CN5CCOCC5)cc34)cc2)CC1" , thanks.
## Result 100

----------
measurement_target: mTLR7 (Mus musculus)
Construct: Splenocytes isolated from male C57/BL6 mice; from tissue; host or cells: splenocytes from the spleen of male C57BL/6 mice
assay_procedure: mTLR7 antagonism (IL-6 and TNF-α release assay) in mouse splenocytes, R0006/DOTAP stimulated
Format: cell-based
study_conditions: 1 μM; IL-6 release, mouse splenocytes; read-out: mTLR7 inhibitory activity (% at 1 μM), IL-6
Method: mTLR9 and mTLR7 Antagonism (Cytokine Release Assay) in Mouse Splenocytes […] 1 mg/ml stock of R0006 was prepared in sterile, endotoxin-free water. […] S/B Ratio, % Activity and % Inhibition was calculated using MS Excel. […]
readout_type: inhibition at 1 µM (%)
Field: numeric (%). Do not append units.

Completed entries (count: 5):
- molecule: "Cc1cc2[nH]c(CN3CCOCC3)cc2c(-c2ccc(C3CCN(C(C)C)CC3)cc2)n1"
  measurement_target: "mTLR7 (Mus musculus)"
  inhibition at 1 µM (%): 100
- molecule: "COc1cc(N2CCN(C(C)C)CC2)ccc1-c1nc(C)cc2c1cc(CCN1CCOCC1)n2C"
  measurement_target: "mTLR7 (Mus musculus)"
  inhibition at 1 µM (%): 70
- molecule: "Cc1cc2c(cc(CCCN3CCOCC3)n2C)c(-c2ccc(N3CCN(C(C)C)CC3)cc2)n1"
  measurement_target: "mTLR7 (Mus musculus)"
  inhibition at 1 µM (%): 100
- molecule: "CC(C)N1CCN(c2ccc(-c3nccc4[nH]c(CCN5CCOCC5)cc34)cc2)CC1"
  measurement_target: "mTLR7 (Mus musculus)"
  inhibition at 1 µM (%): 100
- molecule: "CN1CCN(c2ccc(-c3nccc4[nH]c(CN5CCOCC5)cc34)cc2)CC1"
  measurement_target: "mTLR7 (Mus musculus)"
  inhibition at 1 µM (%): 90

## Task // inhibition at 1 µM lookup, key: CC(C)N1CCN(C2CCC(c3nccc4[nH]c(CN5CCOCC5)cc34)CC2)CC1 (centres unmarked)
## Result 18

## Task Query: inhibition at 1 µM; subject: "CN1CCN(c2ccc(-c3nccc4[nH]c(CN5CCC(F)CC5)cc34)cc2)CC1"
## Result 100

## Task Value lookup for inhibition at 1 µM; key = "Cc1cc2c(cc(CN3CCOCC3)n2C)c(-c2ccc(N3CCN(C(C)C)CC3)cc2)n1"
## Result 100

----------
measurement_target: mTLR9 (Mus musculus)
Construct: Splenocytes isolated from male C57/BL6 mice; from tissue; host or cells: splenocytes from the spleen of male C57BL/6 mice
assay_procedure: mTLR9 antagonism (IL-6 and TNF-α release assay) in mouse splenocytes, CpG ODN-2006 stimulated
Format: cell-based
study_conditions: 1 μM; TNF-α release, mouse splenocytes; read-out: mTLR9 inhibitory activity (% at 1 μM), TNF-α
inhibition at 1 µM below 90% gives Not met; inhibition at 1 µM at or above it gives Met.

Use these answered entries as a reference point.
- molecule: "CC(C)N1CCN(c2ccc(-c3nccc4[nH]c(CCCN5CCOCC5)cc34)cc2)CC1 [Example C1]"
  class_assignment: "Met"
- molecule: "CCN1CCN(c2ccc(-c3nccc4[nH]c(CN5CCOCC5)cc34)cc2)CC1 [Example A3]"
  class_assignment: "Not met"
- molecule: "CC(C)N1CCN(c2ccc(-c3nccc4[nH]c(CN5CCCCC5)cc34)cc2)CC1 [Example A17]"
  class_assignment: "Met"
- molecule: "CN1CCN(c2ccc(-c3nccc4[nH]c(CN5CCOCC5)cc34)cc2)CC1 [Example A2]"
  class_assignment: "Met"
- molecule: "CCN1CCN(c2ccc(-c3nc(C)c(C)c4[nH]c(CCN5CCOCC5)cc34)cc2)CC1 [Example B8]"
  class_assignment: "Met"
- molecule: "Cc1nc(-c2ccc(N3CCN(C(C)C)CC3)cc2)c2cc(CCN3CCCC3)[nH]c2c1C [Example B10]"
  class_assignment: "Met"
- molecule: "CC(C)N1CCC(n2cc(-c3nccc4[nH]c(CN5CCOCC5)cc34)cn2)CC1 [Example A54]"
  class_assignment: "Not met"

Now take the following molecule into account.
## Task Kindly determine if inhibition at 1 µM recorded for CC(C)N1CCN(c2ccc(-c3nccc4[nH]c(CN5CCC[C@@H]5C(=O)O)cc34)cc2)CC1 [Example A74] is above or exactly 90%.
## Result Met

----------
measurement_target: mTLR9 (Mus musculus, UniProt Q9EQU3)
Construct: Splenocytes isolated from male C57/BL6 mice; from tissue; host or cells: splenocytes from the spleen of male C57BL/6 mice
Sequence (Q9EQU3 26-1032): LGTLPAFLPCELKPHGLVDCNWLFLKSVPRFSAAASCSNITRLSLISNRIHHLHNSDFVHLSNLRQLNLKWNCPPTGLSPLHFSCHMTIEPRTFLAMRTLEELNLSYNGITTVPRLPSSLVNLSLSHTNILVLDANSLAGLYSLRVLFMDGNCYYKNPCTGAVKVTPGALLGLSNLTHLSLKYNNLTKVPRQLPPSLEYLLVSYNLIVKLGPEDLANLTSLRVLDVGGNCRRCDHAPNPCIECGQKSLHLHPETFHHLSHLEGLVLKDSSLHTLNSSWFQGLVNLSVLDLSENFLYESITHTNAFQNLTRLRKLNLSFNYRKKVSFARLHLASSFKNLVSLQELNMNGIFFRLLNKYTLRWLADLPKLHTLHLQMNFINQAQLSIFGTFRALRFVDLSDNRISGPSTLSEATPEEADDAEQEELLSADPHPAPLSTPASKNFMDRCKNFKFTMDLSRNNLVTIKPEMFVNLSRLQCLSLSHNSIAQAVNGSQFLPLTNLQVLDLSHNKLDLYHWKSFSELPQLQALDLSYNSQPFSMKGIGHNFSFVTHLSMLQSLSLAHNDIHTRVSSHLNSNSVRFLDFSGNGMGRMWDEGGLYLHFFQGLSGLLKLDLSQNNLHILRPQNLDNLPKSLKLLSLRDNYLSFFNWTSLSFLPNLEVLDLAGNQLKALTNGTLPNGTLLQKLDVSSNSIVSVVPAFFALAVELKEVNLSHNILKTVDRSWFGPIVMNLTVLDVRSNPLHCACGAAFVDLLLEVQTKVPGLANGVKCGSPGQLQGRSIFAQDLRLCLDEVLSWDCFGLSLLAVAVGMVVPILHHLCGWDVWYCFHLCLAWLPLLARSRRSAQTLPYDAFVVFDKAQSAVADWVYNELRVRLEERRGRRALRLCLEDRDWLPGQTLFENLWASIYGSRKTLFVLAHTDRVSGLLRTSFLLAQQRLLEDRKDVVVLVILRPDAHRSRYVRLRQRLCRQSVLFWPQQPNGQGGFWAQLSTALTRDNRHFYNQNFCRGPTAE
assay_procedure: mTLR9 antagonism (IL-6 and TNF-α release assay) in mouse splenocytes, CpG ODN-2006 stimulated
Type: cell-based
study_conditions: 1 μM; TNF-α release, mouse splenocytes; read-out: mTLR9 inhibitory activity (% at 1 μM), TNF-α
readout_type: inhibition at 1 µM

Take a look at these entries with their results.
- structure_string: "Cc1cc2[nH]c(CN3CCC4(CC3)CC(O)C4)cc2c(-c2ccc(N3CCN(C(C)C)CC3)cc2)n1"
  inhibition at 1 µM: "64%"
- structure_string: "CN1CCN(Cc2ccc(-c3nccc4[nH]c(CN5CCOCC5)cc34)cc2)CC1"
  inhibition at 1 µM: "38%"
- structure_string: "Cc1cc2c(cc(CCN3CCOCC3)n2C)c(-c2ccc(N3CCN(C(C)C)CC3)cc2F)n1"
  inhibition at 1 µM: "100%"

Consider now this further compound.
## Task Look at this compound and give its reported inhibition at 1 µM. "Cc1nc(-c2ccc(N3CCN(C)CC3)cc2)c2cc(CN3CCOCC3)[nH]c2c1C"
## Result 100%

The measurements presented in this section are drawn from patent US9643967B2.
